Where do the numbers come from? From PubChem BioAssay (NCI).

tested on: LOX IMVI melanoma; assay: NCI tumour cell line growth inhibition, 48 h; in the data active means GI50 below about 0.43 µM; inactive means the rest
Hi there, use one of these labels in your reply, thanks! 1 (active), -1 (inactive)

Consider the following illustrative entries.
COc1ccc(/C(=N/O)c2cc(F)c(F)c(OC)c2F)cc1O
-1
O=[N+]([O-])c1cc2c(ccc3ccccc32)o1
1
Cc1ccc(-c2csc3ncnc(Nc4cccc(O)c4)c23)cc1
-1
C=CC(=O)N1CCN(c2nc(OC[C@@H]3CCCN3C)nc3c(F)c(-c4nc(N)cc(C)c4C(F)(F)F)c(Cl)cc23)[C@@H](C)C1
-1
O=S(=O)([O-])c1ccc(C=Nc2ccccc2)c([O-])c1.O=S(=O)([O-])c1ccc(C=Nc2ccccc2)c([O-])c1.[Co+2]
-1

input: Assay outcome for "O=C1C=CC(=O)N1c1ccc2ccccc2c1" : what was it?
output: -1
